Values compiled from ChEMBL document CHEMBL1140046.

- Tested system: Polyunsaturated fatty acid 5-lipoxygenase (Homo sapiens)
- Sequence (P09917 whole entry): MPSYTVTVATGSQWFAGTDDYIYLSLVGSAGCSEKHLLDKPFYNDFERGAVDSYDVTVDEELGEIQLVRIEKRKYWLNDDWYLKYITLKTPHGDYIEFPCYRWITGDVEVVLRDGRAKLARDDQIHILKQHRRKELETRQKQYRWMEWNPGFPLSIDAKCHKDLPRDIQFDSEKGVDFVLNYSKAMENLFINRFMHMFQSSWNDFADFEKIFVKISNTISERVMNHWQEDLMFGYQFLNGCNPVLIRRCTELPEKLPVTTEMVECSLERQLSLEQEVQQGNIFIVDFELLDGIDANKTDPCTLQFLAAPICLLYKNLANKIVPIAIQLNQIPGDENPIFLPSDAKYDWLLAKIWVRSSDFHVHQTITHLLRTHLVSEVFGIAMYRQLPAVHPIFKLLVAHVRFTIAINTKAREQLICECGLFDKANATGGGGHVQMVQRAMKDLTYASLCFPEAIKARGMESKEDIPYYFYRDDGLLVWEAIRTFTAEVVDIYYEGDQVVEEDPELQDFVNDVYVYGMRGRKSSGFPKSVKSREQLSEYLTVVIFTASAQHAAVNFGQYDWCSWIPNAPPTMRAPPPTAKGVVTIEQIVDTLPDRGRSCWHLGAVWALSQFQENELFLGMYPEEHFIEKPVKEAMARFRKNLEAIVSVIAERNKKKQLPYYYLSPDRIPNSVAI
- Experimental protocol: Inhibition of 5-lipoxygenase in human intact polymorphonuclear leukocytes assessed as suppression of A23187-induced product formation
pIC50: −log10 of the molar value.
Measured parameter: pIC50

In the examples that follow, each entry is paired with its recorded pIC50.
{"Compound": "CCCCCCC(Sc1nc(Cl)cc(Nc2cccc(C)c2C)n1)C(=O)O (stereo not given)", "pIC50": 5.39}
{"Compound": "CCCCCCC(Sc1nc(Cl)cc(Oc2ccc3ncccc3c2)n1)C(=O)OCC (stereo not given)", "pIC50": 5.77}
{"Compound": "CCCCC(Sc1nc(Cl)cc(Nc2ccc3ncccc3c2)n1)C(=O)OCC (stereo not given)", "pIC50": 5.96}
{"Compound": "O=C(O)CSc1nc(Cl)cc(Nc2cccc3c2CCC3)n1", "pIC50": 5.41}

a. CCOC(=O)CSc1nc(Cl)cc(Nc2cccc3c2CCC3)n1
b. CCOC(=O)C(Sc1nc(Cl)cc(Nc2ccc3ncccc3c2)n1)c1ccccc1 (stereo not given)
c. CCCCCCC(Sc1nc(Cl)cc(Nc2ccc3ncccc3c2)n1)C(=O)OCC (stereo not given)
Ordering: ascending pIC50. Thanks in advance for listing the labels in the requested order.
a, b, c

a. CCOC(=O)CSc1nc(Cl)cc(Nc2ccc3ncccc3c2)n1
b. CCCCCCC(Sc1nc(Cl)cc(NCc2ccc3ncccc3c2)n1)C(=O)OCC (stereo not given)
Identify the entry with the larger pIC50. Options: a and b Record your answer as the label of the chosen record.
b

###

- Tested system: Polyunsaturated fatty acid 5-lipoxygenase (Homo sapiens)
- Experimental protocol: Inhibition of 5-lipoxygenase in human intact polymorphonuclear leukocytes assessed as suppression of A23187-induced product formation at 1 uM
- Parameters: scale not given: the % may be the effect or the level left
Activity calls are given as the source filed them. No cut-off for these calls is given here.
Measured parameter: Activity

In the examples that follow, each entry is paired with its recorded Activity.
{"Compound": "CCCCCCC(Sc1nc(Cl)cc(Nc2cccc(C)c2C)n1)C(=O)OCC (stereo unspecified)", "Activity": "84.9%"}
{"Compound": "CCOC(=O)C(Sc1nc(Cl)cc(Nc2ccc3ncccc3c2)n1)c1ccccc1 (stereo unspecified)", "Activity": "52.7%"}
{"Compound": "CC(=O)N(O)C/C=C/c1cccc(Oc2ccccc2)c1", "Activity": "3.3%"}
{"Compound": "Cc1cccc(Nc2cc(Cl)nc(SC(C)C(=O)O)n2)c1C (stereo unspecified)", "Activity": "inactive"}
{"Compound": "O=C(O)CSc1nc(Cl)cc(Nc2cccc3c2CCC3)n1", "Activity": "71.1%"}

Return Activity measured with Polyunsaturated fatty acid 5-lipoxygenase (Homo sapiens) given this compound: CCOC(=O)C(C)Sc1nc(Cl)cc(Nc2cccc(C)c2C)n1 (stereo unspecified)
inactive

Again, but for CCCCCCC(Sc1nc(Cl)cc(Nc2ccc3ncccc3c2)n1)C(=O)OCC (stereo unspecified)
27.9%

Again, but for CCCCCCC(Sc1nc(Cl)cc(NCc2ccc3ncccc3c2)n1)C(=O)O (stereo unspecified)
87.6%

###

- Tested system: Polyunsaturated fatty acid 5-lipoxygenase (Homo sapiens) (UniProt P09917)
- Sequence (whole entry): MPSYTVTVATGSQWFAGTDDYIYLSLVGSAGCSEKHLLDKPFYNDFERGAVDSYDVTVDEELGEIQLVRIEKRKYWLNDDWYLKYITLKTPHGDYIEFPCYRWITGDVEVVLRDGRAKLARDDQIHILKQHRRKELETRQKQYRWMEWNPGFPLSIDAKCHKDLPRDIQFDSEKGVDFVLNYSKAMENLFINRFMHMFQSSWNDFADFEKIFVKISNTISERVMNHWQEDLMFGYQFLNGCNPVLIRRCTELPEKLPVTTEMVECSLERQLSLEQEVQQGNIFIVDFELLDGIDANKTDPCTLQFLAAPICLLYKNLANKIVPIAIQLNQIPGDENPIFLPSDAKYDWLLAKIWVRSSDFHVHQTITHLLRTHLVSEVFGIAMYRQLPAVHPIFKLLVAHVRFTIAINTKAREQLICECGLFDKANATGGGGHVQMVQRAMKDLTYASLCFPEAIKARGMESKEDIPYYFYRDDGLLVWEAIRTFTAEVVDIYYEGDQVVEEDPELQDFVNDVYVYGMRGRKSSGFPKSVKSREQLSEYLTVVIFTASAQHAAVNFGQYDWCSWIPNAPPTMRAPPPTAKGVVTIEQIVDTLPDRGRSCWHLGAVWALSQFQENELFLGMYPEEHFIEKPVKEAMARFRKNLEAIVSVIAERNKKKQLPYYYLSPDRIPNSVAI
- Experimental protocol: Inhibition of 5-lipoxygenase in human intact polymorphonuclear leukocytes assessed as suppression of A23187-induced product formation at 10 uM
- Parameters: scale not given: the % may be the effect or the level left
Measured parameter: Activity (%)

{"Compound": "CCCCCCC(Sc1nc(Cl)cc(Oc2ccc3ncccc3c2)n1)C(=O)OCC (centres undefined)", "Activity [%]": 4.5}

a. CCCCC(Sc1nc(Cl)cc(Nc2ccc3ncccc3c2)n1)C(=O)OCC (centres undefined)
b. CCCCCCC(Sc1nc(Cl)cc(Nc2ccc3ncccc3c2)n1)C(=O)OCC (centres undefined)
c. CCCCCCC(Sc1nc(Cl)cc(NCc2ccc3ncccc3c2)n1)C(=O)OCC (centres undefined)
Reorder: Activity, max to min. Thanks in advance for listing the labels in the requested order.
c, b, a
(c: 11.4%, b: 4%, a: 1.6%)

###

- Tested system: Polyunsaturated fatty acid 5-lipoxygenase (Homo sapiens)
- Experimental protocol: Inhibition of human recombinant 5-lipoxygenase expressed in Escherichia coli MV1190 assessed as suppression of CaCl2/arachidonic acid-induced product formation at 1 uM
- Parameters: scale not given: the % may be the effect or the level left
Measured parameter: Activity (%)

In the examples that follow, each entry is paired with its recorded Activity.
{"Compound": "CCCCCCC(Sc1nc(Cl)cc(Oc2ccc3ncccc3c2)n1)C(=O)O (configuration not stated)", "Activity (%)": 93.7}
{"Compound": "CCCCCCC(Sc1nc(Cl)cc(Oc2ccc3ncccc3c2)n1)C(=O)OCC (configuration not stated)", "Activity (%)": 79.1}
{"Compound": "CCCCCCC(Sc1nc(Cl)cc(Nc2ccc3ncccc3c2)n1)C(=O)OCC (configuration not stated)", "Activity (%)": 68.2}
{"Compound": "CCCCCCC(Sc1nc(Cl)cc(NCc2ccc3ncccc3c2)n1)C(=O)OCC (configuration not stated)", "Activity (%)": 70.7}
{"Compound": "CCCCCCC(Sc1nc(Cl)cc(NCc2ccc3ncccc3c2)n1)C(=O)O (configuration not stated)", "Activity (%)": 95.6}

I. CCCCCCC(Sc1nc(Cl)cc(Nc2ccc3ncccc3c2)n1)C(=O)O (configuration not stated)
II. CC(=O)N(O)C/C=C/c1cccc(Oc2ccccc2)c1
Identify the entry with the larger Activity. Options: I and II Record your answer as the label of the chosen record.
I
(I: 95.4%, II: 10.8%)

###

- Tested system: Polyunsaturated fatty acid 5-lipoxygenase (Homo sapiens)
- Sequence (P09917 whole entry): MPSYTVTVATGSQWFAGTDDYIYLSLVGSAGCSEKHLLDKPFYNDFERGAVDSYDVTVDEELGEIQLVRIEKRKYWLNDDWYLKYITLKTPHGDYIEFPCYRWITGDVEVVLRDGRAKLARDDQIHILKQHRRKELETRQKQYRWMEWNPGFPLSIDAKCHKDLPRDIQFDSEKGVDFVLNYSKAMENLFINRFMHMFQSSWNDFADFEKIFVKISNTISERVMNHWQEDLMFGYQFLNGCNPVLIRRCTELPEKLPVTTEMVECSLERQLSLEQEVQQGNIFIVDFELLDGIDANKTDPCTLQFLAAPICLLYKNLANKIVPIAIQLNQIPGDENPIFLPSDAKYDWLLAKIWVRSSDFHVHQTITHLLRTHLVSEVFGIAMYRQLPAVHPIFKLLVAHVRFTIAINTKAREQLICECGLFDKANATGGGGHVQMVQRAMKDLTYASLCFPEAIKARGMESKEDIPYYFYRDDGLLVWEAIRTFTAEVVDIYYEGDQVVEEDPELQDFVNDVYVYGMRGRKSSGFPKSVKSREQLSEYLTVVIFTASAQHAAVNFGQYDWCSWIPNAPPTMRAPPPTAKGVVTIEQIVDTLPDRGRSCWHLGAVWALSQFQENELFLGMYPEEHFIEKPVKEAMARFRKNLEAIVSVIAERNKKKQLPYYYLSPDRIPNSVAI
- Experimental protocol: Inhibition of human recombinant 5-lipoxygenase expressed in Escherichia coli MV1190 assessed as suppression of CaCl2/arachidonic acid-induced product formation
pIC50: −log10 of the molar value.
Measured parameter: pIC50

In the examples that follow, each entry is paired with its recorded pIC50.
{"Molecule": "CCCCCCC(Sc1nc(Cl)cc(NCc2ccc3ncccc3c2)n1)C(=O)O (centres undefined)", "Tested system": "Polyunsaturated fatty acid 5-lipoxygenase (Homo sapiens)", "Measured parameter": "pIC50", "Reported value": 4.51}
{"Molecule": "CCCCCCC(Sc1nc(Cl)cc(NCc2ccc3ncccc3c2)n1)C(=O)OCC (centres undefined)", "Tested system": "Polyunsaturated fatty acid 5-lipoxygenase (Homo sapiens)", "Measured parameter": "pIC50", "Reported value": 4.43}

A. CCCCCCC(Sc1nc(Cl)cc(Nc2ccc3ncccc3c2)n1)C(=O)O (centres undefined)
B. CCCCCCC(Sc1nc(Cl)cc(Nc2ccc3ncccc3c2)n1)C(=O)OCC (centres undefined)
Identify the entry with the larger pIC50. Options: A and B Record your answer as the label of the chosen record.
B
(B: 4.72, A: 4.47)
